Test system: Pseudomonas aeruginosa
Assay: In vitro antibacterial activity against Pseudomonas aeruginosa P. aeruginosa 1911.
Format: functional
Measured MIC, listed per entry for reference.
Express your answer in µg/mL, writing the number without its unit.

Solved entries:
- SMILES: "C[C@@H](O)[C@H]1C(=O)N2C(C(=O)[O-])=C3[C@H](CCC[C@@H]3N(C)C(N)=O)[C@H]12.[Na+]"
  MIC, µg/mL: 8
- SMILES: "CCNC(=O)N(C)[C@H]1CCC[C@H]2C1=C(C(=O)[O-])N1C(=O)[C@H]([C@@H](C)O)[C@@H]21.[Na+]"
  MIC, µg/mL: 16
- SMILES: "C[C@@H](O)[C@H]1C(=O)N2C(C(=O)[O-])=C3[C@H](CCC[C@@H]3N(C)C(=O)NCCO)[C@H]12.[Na+]"
  MIC, µg/mL: 16

// lookup MIC | system=Pseudomonas aeruginosa | key= `C[C@@H](O)[C@H]1C(=O)N2C(C(=O)[O-])=C3[C@H](CCC[C@@H]3N(C)C(=O)NC(C)(C)C)[C@H]12.[Na+]`
16

// provenance: ChEMBL document CHEMBL1128935
